Some compounds, each annotated with its measured pKi.
target: HIV-integrase (Human immunodeficiency virus type 1 group M subtype B, UniProt P12497); construct: Recombinant integrase (0.26 ng) was incubated with the beads; experiment: HIV-Integrase Inhibition Activity (SPA bead integration assay with P33 labeled target DNA); conditions: representative compounds
API: returns pKi as number; meaning -log10 of concentration in mol/L.

Some solved entries appear below for comparison.
{"Compound": "Cc1cc(CNC(=O)c2nc3n(c(=O)c2O)CC2CCC3(NC(=O)C3(C(F)(F)F)CC3)CC2)ccc1F", "Measured attribute": "pKi", "Recorded number": 6.74}
{"Compound": "O=C(NC12CCC(Cn3c1nc(C(=O)NCc1ccc(F)cc1)c(O)c3=O)OC2)OCc1ccccc1 (centres unmarked)", "Measured attribute": "pKi", "Recorded number": 7.92}

Looking up Cc1noc(C)c1S(=O)(=O)NC12CCC(CC1)Cn1c2nc(C(=O)NCc2ccc(F)cc2)c(O)c1=O , I see its pKi listed as 6.33

Memo: O=C(NC12CCC(CC1)Cn1c2nc(C(=O)NCc2ccc(F)cc2)c(O)c1=O)C(=O)c1c[nH]c2c(-n3cncn3)ncc(F)c12 , reported pKi: 9.00

So for COc1ccc(CNC(=O)c2nc3n(c(=O)c2O)CC2CCC3(NC(=O)C(=O)N(C)C)CC2)c(OC)c1 , the logged pKi turned out to be 7.96

Query CN(C)C(=O)C(=O)NC12CCC(CC1)Cn1c2nc(C(=O)N[C@H]2C[C@@H]2c2ccccc2)c(O)c1=O yields pKi of 8.05

Value of pKi reported for the compound Cc1cc(CNC(=O)c2nc3n(c(=O)c2O)CC2CCC3(NS(=O)(=O)C3CC3)CC2)ccc1F is 9.00

Value of measured pKi for the entry O=C(NCc1ccc(F)cc1)c1nc2n(c(=O)c1O)CC1CCC2(NS(=O)(=O)c2ccccc2OC(F)(F)F)CC1 : 6.53

Item: O=C(NCc1ccc(F)cc1)c1nc2n(c(=O)c1O)CC1CCC2(NS(=O)(=O)C2CC2)CC1 | pKi: 9.00

Briefly, pKi measured for O=C(NC12CCC(CC1)Cn1c2nc(C(=O)NCc2ccc(F)cc2)c(O)c1=O)c1cccnc1 : 9.00

Briefly, pKi measured for NC12CCC(CC1)Cn1c2nc(C(=O)NCc2ccc(F)cc2)c(O)c1=O : 6.90

* * *

// values below are reported pIC50
Target: HIV-integrase (Human immunodeficiency virus type 1 group M subtype B, UniProt P12497)
Construct: Recombinant integrase (0.26 ng) was incubated with the beads
Assay: HIV-Integrase Inhibition Activity (SPA bead integration assay with P33 labeled target DNA)
Assay type: biochemical
Details: recombinant integrase, class symbols; read-out: in vitro activity
Experimental: HIV-Integrase Inhibition Activity. To evaluate in-vitro activity against HIV-integrase, 5 pmole of biotin labeled substrate DNA was bound to 100 μg of Streptavidin coated PVT SPA beads (Amersham Pharmacia Biotech). Recombinant integrase (0.26 ng) was incubated with the beads for 90 min at 37° C. […] Samples were counted in TopCountNXT (Packard) and the CPM was used as a measure of integration. […]
pIC50: −log10 of the molar value.

{"Compound": "CC(C)N(C)C(=O)C(=O)NC12CCC(CCn3c1nc(C(=O)NCc1ccc(F)cc1)c(O)c3=O)C2 (stereo not shown)", "pIC50": "> 8.00"}

Lab book: pIC50 of O=C(NC12CCC(CC1)Cn1c2nc(C(=O)NCc2ccc(F)cc2)c(O)c1=O)C(=O)N1CCNCC1 noted as > 8.00

Quick note, pIC50 for O=C(NC12CCC(CC1)Cn1c2nc(C(=O)NCc2ccc(F)cc2)c(O)c1=O)OCc1ccccc1 landed at > 8.00

Record summary for CN(CCF)C(=O)C(=O)NC12CCC(CC1)Cn1c2nc(C(=O)NCc2ccc(F)cc2)c(O)c1=O : reported pIC50 = > 8.00

* * *

Reported values of pIC50 for individual entries
Biological target: HIV-integrase (Human immunodeficiency virus type 1 group M subtype B)
Construct: Recombinant integrase (0.26 ng) was incubated with the beads
Assay: HIV-Integrase Inhibition Activity (SPA bead integration assay with P33 labeled target DNA)
Type: biochemical
Conditions: recombinant integrase, class symbols; read-out: in vitro activity
Description: HIV-Integrase Inhibition Activity. To evaluate in-vitro activity against HIV-integrase, 5 pmole of biotin labeled substrate DNA was bound to 100 μg of Streptavidin coated PVT SPA beads (Amersham Pharmacia Biotech). Recombinant integrase (0.26 ng) was incubated with the beads for 90 min at 37° C. […] Samples were counted in TopCountNXT (Packard) and the CPM was used as a measure of integration. […]
pIC50: −log10 of the molar value.

{"Line notation": "Cc1cc(CNC(=O)c2nc3n(c(=O)c2O)CC2CCC3(NC(=O)[C@H]3CCN(S(C)(=O)=O)C3)CC2)ccc1F", "pIC50": "> 8.00"}
{"Line notation": "O=C(NC12CCC(CC1)Cn1c2nc(C(=O)NCc2ccc(F)cc2)c(O)c1=O)C(=O)N1CC[C@H](F)C1", "pIC50": "> 8.00"}
{"Line notation": "CN(C(=O)N(C)C12CCC(CC1)Cn1c2nc(C(=O)NCc2ccc(F)cc2)c(O)c1=O)c1ccccn1", "pIC50": "7.00 to 8.00"}

Continue with the compound presented below.
# compound CN(C)C(=O)C(=O)NC12CCC(CC1)Cn1c2nc(C(=O)NCc2ccc(Cl)cc2Cl)c(O)c1=O ; its pIC50 = > 8.00

* * *

target: HIV-integrase (Human immunodeficiency virus type 1 group M subtype B, UniProt P12497); construct: Recombinant integrase (0.26 ng) was incubated with the beads; experiment: HIV-Integrase Inhibition Activity (SPA bead integration assay with P33 labeled target DNA); format: biochemical; details: recombinant integrase, class symbols; read-out: in vitro activity
Measured attribute: IC50

Reference set, count: 3
{"Line notation": "CN(C)C(=O)C(=O)OCCNC12CCC(CC1)Cn1c2nc(C(=O)NCc2ccc(F)cc2)c(O)c1=O", "Result": "0.01 to 0.1 µM"}
{"Line notation": "CS(=O)(=O)N1CCN(C(=O)C(=O)NC23CCC(CC2)Cn2c3nc(C(=O)NCc3ccc(F)cc3)c(O)c2=O)CC1", "Result": "< 0.01 µM"}
{"Line notation": "CNC(=O)C(=O)NC12CCC(CC1)Cn1c2nc(C(=O)NCc2ccc(F)cc2)c(O)c1=O", "Result": "< 0.01 µM"}

Data point: C=C[C@@H]1C[C@]1(NC(C)=O)C(=O)NC12CCC(CC1)Cn1c2nc(C(=O)NCc2ccc(F)cc2)c(O)c1=O ; IC50 = 0.01 to 0.1 µM

According to the records, this compound CN(C)C(=O)C(=O)NC12CCC(CC1)Cn1c2nc(C(=O)NCc2cc(Br)c(F)cc2Br)c(O)c1=O displays IC50 of < 0.01 µM

Lab book: IC50 of Cc1nnc(C(=O)NC23CCC(CC2)Cn2c3nc(C(=O)NCc3ccc(F)cc3)c(O)c2=O)o1 noted as < 0.01 µM

Item: O=C(NC12CCC(CC1)Cn1c2nc(C(=O)NCc2ccc(F)cc2)c(O)c1=O)C(=O)N1CCOCC1 | IC50: < 0.01 µM

* * *

biological target: HIV-integrase (Human immunodeficiency virus type 1 group M subtype B); construct: Recombinant integrase (0.26 ng) was incubated with the beads; test: HIV-Integrase Inhibition Activity (SPA bead integration assay with P33 labeled target DNA); type: biochemical; conditions: recombinant integrase, class symbols; read-out: in vitro activity
Each entry below lists one item and its recorded IC50 value.

{"Molecule": "Cc1cc(CNC(=O)c2nc3n(c(=O)c2O)CC[C@H]2CC[C@]3(NC(=O)C(=O)N(C)C)C2)ccc1F [Example 416]", "Target desc": "HIV-integrase (Human immunodeficiency virus type 1 group M subtype B)", "IC50": "< 10 nM"}

Summary for this molecule, Cc1cc(CNC(=O)c2nc3n(c(=O)c2O)CC2CCC3(N(C)C(=O)C(=O)N(C)Cc3cn(C)nc3C)CC2)ccc1F [Example 170] : IC50 is < 10 nM

// IC50 value for COC1CN(C(=O)C(=O)NC23CCC(CC2)Cn2c3nc(C(=O)NCc3ccc(F)cc3)c(O)c2=O)C1 [Example 66] : < 10 nM

Lab note: COCCN(C)C(=O)C(=O)NC12CCC(CC1)Cn1c2nc(C(=O)NCc2ccc(F)c(Cl)c2)c(O)c1=O [Example 135] gave IC50 of < 10 nM

Sure, the documented IC50 for O=C(NC12CCC(CC1)Cn1c2nc(C(=O)NCc2ccc(F)cc2)c(O)c1=O)C(=O)N1CCN(S(=O)(=O)c2ccc(S(=O)(=O)N3CCOCC3)cc2)CC1 [Example 149] is < 10 nM

Please fill in: IC50 reported for Cc1cc(CNC(=O)c2nc3n(c(=O)c2O)CC2CCC3(NC(=O)C(C)(C)n3cccn3)CC2)ccc1F [Example 281] = < 10 nM

So for CN(C)C(=O)C(=O)NC12CCC(CC1)Cn1c2nc(C(=O)NCc2ccc(F)cc2CO)c(O)c1=O [Example 122] , the logged IC50 turned out to be < 10 nM

Just for reference, patent US8129398B2 is where these values come from.
